Where do the numbers come from? From patent US20250320214A1.

Hi there, I'd appreciate the recorded inhibition at 0.1 µM for every entry that follows.
# system.under.test: Mu opioid receptor (Homo sapiens)
# Sequence (P35372 whole entry): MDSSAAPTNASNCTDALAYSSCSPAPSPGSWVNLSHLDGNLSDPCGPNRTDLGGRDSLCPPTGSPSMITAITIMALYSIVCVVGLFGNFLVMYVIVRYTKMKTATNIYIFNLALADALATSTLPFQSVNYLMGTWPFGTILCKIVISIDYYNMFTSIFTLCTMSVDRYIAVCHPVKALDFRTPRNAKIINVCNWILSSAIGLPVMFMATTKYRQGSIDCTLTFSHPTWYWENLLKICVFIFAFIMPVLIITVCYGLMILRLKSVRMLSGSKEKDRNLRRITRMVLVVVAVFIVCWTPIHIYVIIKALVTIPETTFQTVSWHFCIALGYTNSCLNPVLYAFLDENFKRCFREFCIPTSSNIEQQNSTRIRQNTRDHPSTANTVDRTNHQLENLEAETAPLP
# test.description: Receptor binding, Mu opioid receptor
# measurement.parameters: at 100 nM; read-out: Mu maximum inhibition

# annotated cases, reported inhibition at 0.1 µM shown
O=C1CN2c3c(cccc3[C@@H]3CN(CCCS(=O)(=O)c4ccc(F)cc4)CC[C@@H]32)N1 | < 0%
CC(=O)Nc1cccc2c1N[C@H]1CCN(CCCC(O)c3ccc(F)cc3)C[C@@H]21 (stereo partly drawn) | < 0%

Proceeding to the next molecule to report its inhibition at 0.1 µM.
Lookup: Endpoint output: inhibition at 0.1 µM of O=C1Nc2cccc3c2N([C@H]2CCN(CCCOc4ccc(F)cc4)C[C@@H]32)C1(F)F . Value?
Found: < 0%
